This collection of values is drawn from paper PMC5700166.

# STUDY_TARGET: GST-Nv-NF-kB (Ser allele) (Nematostella vectensis, UniProt A7UNT2 2-411)
# Sequence: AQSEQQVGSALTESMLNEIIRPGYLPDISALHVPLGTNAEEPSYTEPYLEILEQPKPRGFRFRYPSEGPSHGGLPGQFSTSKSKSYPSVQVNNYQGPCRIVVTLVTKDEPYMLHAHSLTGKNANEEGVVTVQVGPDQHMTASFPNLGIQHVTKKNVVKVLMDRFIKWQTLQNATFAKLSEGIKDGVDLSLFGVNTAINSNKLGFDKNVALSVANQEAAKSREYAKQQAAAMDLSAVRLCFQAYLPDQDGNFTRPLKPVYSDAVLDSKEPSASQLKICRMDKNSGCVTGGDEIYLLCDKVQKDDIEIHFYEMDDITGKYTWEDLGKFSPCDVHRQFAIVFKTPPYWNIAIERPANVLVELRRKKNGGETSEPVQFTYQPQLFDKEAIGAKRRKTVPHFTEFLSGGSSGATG
# MEASUREMENT_PROTOCOL: protein-binding microarray (PBM); PBM: ~300 nM protein, 6 mM HEPES pH 7.8, 80 mM KCl, 0.5 mM EDTA, 0.5 mM EGTA, 6% glycerol, 35 ng/ul poly-dIdC, 1% milk, 1 h, room temperature; Ap Aiptasia and Nv Nematostella (sea anemones) / Co Capsaspora / Aq Amphimedon (sponge) / Dm Drosophila / Hu human; RHD is the Rel homology domain; high values mean tight binding
# EXPERIMENTAL_PARAMETERS: dsDNA, one strand shown
// boundary case: binding signal equal to 4 z-score maps to 0.0; strictly smaller maps to 1.0

Solved entries:
# SEQUENCE_DATA, STUDY_TARGET, LABEL
measured = [
    ("CCGATTAACATCACCCCTCCCCCTGATGTTAATCGGGTCTTGATTCGCTTGACGCTGCTG", "GST-Nv-NF-kB (Ser allele) (Nematostella vectensis, UniProt A7UNT2 2-411)", 0.0),
    ("CCGATTAACATCACCGCCCCCCCTGATGTTAATCGGGTCTTGATTCGCTTGACGCTGCTG", "GST-Nv-NF-kB (Ser allele) (Nematostella vectensis, UniProt A7UNT2 2-411)", 0.0),
    ("CCGATTAACATCAGGGGATGACCTGATGTTAATCGGGTCTTGATTCGCTTGACGCTGCTG", "GST-Nv-NF-kB (Ser allele) (Nematostella vectensis, UniProt A7UNT2 2-411)", 1.0),
    ("CCGATTAACATCAAAATTCCCTGTGATGTTAATCGGGTCTTGATTCGCTTGACGCTGCTG", "GST-Nv-NF-kB (Ser allele) (Nematostella vectensis, UniProt A7UNT2 2-411)", 0.0),
    ("CCGATTAACATCAAAATCTTCCCTGATGTTAATCGGGTCTTGATTCGCTTGACGCTGCTG", "GST-Nv-NF-kB (Ser allele) (Nematostella vectensis, UniProt A7UNT2 2-411)", 0.0),
    ("CCGATTAACATCACGGAGTCCCCTGATGTTAATCGGGTCTTGATTCGCTTGACGCTGCTG", "GST-Nv-NF-kB (Ser allele) (Nematostella vectensis, UniProt A7UNT2 2-411)", 0.0),
    ("CCGATTAACATCAATTTCCCATATGATGTTAATCGGGTCTTGATTCGCTTGACGCTGCTG", "GST-Nv-NF-kB (Ser allele) (Nematostella vectensis, UniProt A7UNT2 2-411)", 1.0),
    ("CCGATTAACATCAGGGGGATGTATGATGTTAATCGGGTCTTGATTCGCTTGACGCTGCTG", "GST-Nv-NF-kB (Ser allele) (Nematostella vectensis, UniProt A7UNT2 2-411)", 0.0),
]

Please state whether binding signal is below 4 z-score for `CCGATTAACATCAGATAACCCCCTGATGTTAATCGGGTCTTGATTCGCTTGACGCTGCTG`
0.0

Please state whether binding signal is below 4 z-score for `CCGATTAACATCACAAACGGGGCTGATGTTAATCGGGTCTTGATTCGCTTGACGCTGCTG`
1.0

Please state whether binding signal is below 4 z-score for `CCGATTAACATCAAAAATCCCGATGATGTTAATCGGGTCTTGATTCGCTTGACGCTGCTG`
1.0

Please state whether binding signal is below 4 z-score for `CCGATTAACATCAGGGGGAGCACTGATGTTAATCGGGTCTTGATTCGCTTGACGCTGCTG`
0.0

Please state whether binding signal is below 4 z-score for `CCGATTAACATCAAGGGATTCCCTGATGTTAATCGGGTCTTGATTCGCTTGACGCTGCTG`
0.0

Please state whether binding signal is below 4 z-score for `CCGATTAACATCAAATTCCCGTATGATGTTAATCGGGTCTTGATTCGCTTGACGCTGCTG`
0.0

Please state whether binding signal is below 4 z-score for `CCGATTAACATCAAAATTCCCGGTGATGTTAATCGGGTCTTGATTCGCTTGACGCTGCTG`
0.0

Please state whether binding signal is below 4 z-score for `CCGATTAACATCAGGGGGTATACTGATGTTAATCGGGTCTTGATTCGCTTGACGCTGCTG`
0.0
